details: in isobutanol, 303.15 K
quantity kind: solubility (mole fraction)
Give a plain numeric answer without units written out.

Which solubility (mole fraction) value is on record for O=C(O)c1cc2ccccc2cc1O ?
0.0207

----------
details: in acetone, 298.15 K
quantity kind: solubility (mole fraction)
Enter the number alone.

Returns the measured solubility (mole fraction) for the input molecule. Input: O=C(O)c1cc2ccccc2cc1O
0.0389

----------
details: in methanol, 303.15 K
quantity kind: solubility (mole fraction)
Answer as a number with no unit attached.

Consider the compound O=C(O)c1cc2ccccc2cc1O and give its measured solubility (mole fraction).
0.018

----------
details: in isopropanol, 328.15 K
quantity kind: solubility (mole fraction)
Lab note: write the figure by itself, no unit.

// returns reported solubility (mole fraction) for input O=C(O)c1cc2ccccc2cc1O
0.0565
